# Kd values compiled below
# TARGET SYSTEM: T1, human IL-18BP (human, UniProt O95998 31-194)
# T1 construct: UniProt printed as 095998; also called hIL-18BP
# T1 sequence: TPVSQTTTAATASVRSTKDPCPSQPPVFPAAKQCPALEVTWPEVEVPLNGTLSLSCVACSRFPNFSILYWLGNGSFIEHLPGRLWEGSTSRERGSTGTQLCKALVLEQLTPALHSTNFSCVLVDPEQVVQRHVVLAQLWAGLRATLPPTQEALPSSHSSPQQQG
# TEST NAME: BLI, apparent KD

BINDER	Kd
SA302a HC-S31Q (antibody, V domains shown) VH: QVQLQESGPGLVKPSQTLSLTCTVSGYSITQDYNAHWIRQPPGKGLEWIGYIHYSGSTNYNPSLKSRVTISRDTSKNQFSLKLSSVTAADTAVYYCARNYGSIYVNYFDYWGQGTLVTVSS VL: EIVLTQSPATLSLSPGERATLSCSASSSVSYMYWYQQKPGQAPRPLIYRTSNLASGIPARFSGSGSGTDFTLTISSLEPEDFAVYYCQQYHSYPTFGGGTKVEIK	0.56 nM
SA302a HC-D33I (antibody, V domains shown) VH: QVQLQESGPGLVKPSQTLSLTCTVSGYSITSIYNAHWIRQPPGKGLEWIGYIHYSGSTNYNPSLKSRVTISRDTSKNQFSLKLSSVTAADTAVYYCARNYGSIYVNYFDYWGQGTLVTVSS VL: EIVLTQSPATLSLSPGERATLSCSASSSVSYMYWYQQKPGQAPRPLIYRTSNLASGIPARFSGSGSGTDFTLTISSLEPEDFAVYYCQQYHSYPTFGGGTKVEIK	4.97 nM
SA302a HC-H35T (antibody, V domains shown, IgG1 kappa) VH: QVQLQESGPGLVKPSQTLSLTCTVSGYSITSDYNATWIRQPPGKGLEWIGYIHYSGSTNYNPSLKSRVTISRDTSKNQFSLKLSSVTAADTAVYYCARNYGSIYVNYFDYWGQGTLVTVSS VL: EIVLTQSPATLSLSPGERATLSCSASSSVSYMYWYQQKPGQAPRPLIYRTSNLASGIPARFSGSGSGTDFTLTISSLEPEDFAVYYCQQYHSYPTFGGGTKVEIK	2.23 nM
